assay: solvent given as SMILES; conditions: in Cc1ccccc1
Note to self: emission maximum under 400 nm means met, ties and anything higher get not met.

>  <SMILES STRUCTURE>
O=C1c2ccccc2C(=O)N1c1ccc(Cn2cncn2)cc1

>  <CAT>
met

$$$$
>  <SMILES STRUCTURE>
CCCC1=Cc2nc1ccc1[nH]c(cc1CCC)c1nc(c(OC)cc3[nH]c2cc3CCC)C(CCC)=C1

>  <CAT>
not met

$$$$

Here is the next item to consider.
Query string: Given the entry `c1ccc(-c2nc(-c3ccccc3)nc(-c3ccc(-n4c5ccccc5c5cc6c7ccccc7n7c8ccccc8c(c54)c67)cc3)n2)cc1` , would its reported emission maximum be below 400 nm?
Result string: not met

----------
experiment: solvent given as SMILES; conditions: in ClC(Cl)Cl
READOUT TYPE: emission maximum (nm)
Provide only the numeric value, understood in nm.

Looking up `CC1=NN(c2ccccc2)C(=O)/C1=C/c1cn(-c2ccccc2)nc1-c1ccccc1` , I found its emission maximum recorded as 432

Looking up `CCCCCCN1C(=O)c2cccc3c(-c4ccc(Cl)s4)ccc(c23)C1=O` , I found its emission maximum recorded as 482

Looking up `CCCCCCCCCCCCCCOc1ccc(C#Cc2cc3nc4c(OCCCCCCCCCCCC)cc5c6cc(OCCCCCCCCCCCC)c(OCCCCCCCCCCCC)cc6c6cc(OCCCCCCCCCCCC)c(OCCCCCCCCCCCC)cc6c5c4nc3cc2C#Cc2ccc(OCCCCCCCCCCCCCC)cc2)cc1` , I found its emission maximum recorded as 663

Looking up `CCCCN1C(=O)c2ccc3c4c(Br)cc5c6c(ccc(c7c(Br)cc(c2c37)C1=O)c64)C(=O)N(CCCC)C5=O` , I found its emission maximum recorded as 542

Looking up `CCCCCCN1C(=O)c2cccc3cc(/N=C\c4ccc5c(c4)c4ccccc4n5CC)cc(c23)C1=O` , I found its emission maximum recorded as 501

Looking up `c1ccc(-c2c3c(nc4ccccc24)-c2cc4c(cc2CC3)-c2nc3ccccc3c(-c3ccccc3)c2CC4)cc1` , I found its emission maximum recorded as 387

Looking up `Oc1ccccc1/N=C/c1ccccc1Oc1ccccc1` , I found its emission maximum recorded as 410

Looking up `COC(=O)c1ccc2cc(C#N)c3ccc4ccccc4c3c2c1` , I found its emission maximum recorded as 422

----------
assay: solvent given as SMILES; settings: in Cc1ccccc1
READOUT TYPE: emission maximum (nm)
Provide only the numeric value, understood in nm.

>  <SMILES STRUCTURE>
CN(C)c1ccc2c3c(ccc2c1)CCCC3=O

>  <UNITS TEXT>
nm

>  <emission maximum>
478

$$$$
>  <SMILES STRUCTURE>
O=C1c2cc(-n3c4ccccc4c4ccccc43)ccc2S(=O)(=O)c2ccc(-n3c4ccccc4c4ccccc43)cc21

>  <UNITS TEXT>
nm

>  <emission maximum>
546

$$$$
>  <SMILES STRUCTURE>
Cc1cc2c(cc1N1c3ccccc3C(C)(C)c3ccccc31)C(C)(C)c1cc(N3c4ccccc4C(C)(C)c4ccccc43)c(C)cc1S2(=O)=O

>  <UNITS TEXT>
nm

>  <emission maximum>
442.11

$$$$
>  <SMILES STRUCTURE>
CCCCCCc1ccc2c3c(ccc2c1)O[B-](c1ccccc1)(c1ccccc1)[N+](c1ccc([N+]2=Cc4c(ccc5cc(CCCCCC)ccc45)O[B-]2(c2ccccc2)c2ccccc2)cc1)=C3

>  <UNITS TEXT>
nm

>  <emission maximum>
569

$$$$
>  <SMILES STRUCTURE>
CC1(C)c2ccccc2N(c2ccc(-c3nnc(-c4ccc(-n5c6ccccc6c6ccccc65)cc4)o3)cc2)c2ccccc21

>  <UNITS TEXT>
nm

>  <emission maximum>
460

$$$$
>  <SMILES STRUCTURE>
CCN1c2ccc(/C=N/Nc3ccccn3)cc2Sc2cc(/C=N/Nc3ccccn3)ccc21

>  <UNITS TEXT>
nm

>  <emission maximum>
491

$$$$

We next turn to a different molecule, shown below.
Looking up `CC(C)(C)c1ccc2c(c1)c1cc(C(C)(C)C)ccc1n2-c1nc2ccccc2nc1-n1c2ccc(C(C)(C)C)cc2c2cc(C(C)(C)C)ccc21` , I found its emission maximum recorded as 527
